system.name: T1, recombinant human PCSK9 protein, His-tagged (Immunogen A, hPCSK9-His) (human, UniProt Q8NBP7 31-692, limits assumed, biotin-labelled in the ELISA and blocking assays (Biotin labeling kit))
T1 construct: also called human PCSK9-His; recombinant hPCSK9-His; not shown: His tag
experiment.notes: ELISA, biotin-hPCSK9-His on streptavidin plate; antibody 0.00067 nM
reported.endpoint: OD450 nm (OD450 nm)
// return numeric value only (unit: OD450 nm, not printed)

Dear colleague, I am looking for the recorded OD450 nm of the following binder: 103C11E8, chimeric anti-PCSK9 mAb purified from hybridoma (antibody, V domains shown, From Harbour H2L2 mice: human variable regions, rat constant regions) VH: QVQLQESGPGLVKPSGTLSLTCAVSGGSISSSNWWSWVRQPPGKGLEWIGEIYHSGSTNYNPSLKSRVTISVDKSKNQFSLKLSSVTAADTAVYYCARGIAVAGTDVMDAWGQGASVTVSS VL: EIVLTQSPATLSLSPGERATLSCRASQSVSSYLVWYQQKSGQAPRLLIYGTSNRATGIPARFSGSGSGTDFTLTISSLEPEDFALYYCQQRGNWMYTFGQGTKLEIK
0.15
